// data source = PubChem BioAssay (NCI)

- Tested on: MDA-MB-435 melanoma
- procedureDetails: NCI-60 one-dose screen, 48 h (100 = growth as untreated, 0 = no growth, -100 = all killed)
- experimentalParameters: 10 µM unless noted
About 83,000 compounds went through this panel and 20% of them were active in at least one assay; those are over-represented in the sample as a whole. Active and inactive are the calls of the source. How the source made its calls: active means growth percent below 10; inactive means the rest.
quantityName: growth

Examples from the recorded data:
[[record]]
compound = "COc1ccc(C(=O)COc2ccc(/C=C3\\Oc4ccc5ccccc5c4C3=O)cc2)cc1"
targetorsystem = "MDA-MB-435 melanoma"
experimentalvalue = "101% (inactive)"

[[record]]
compound = "CCOC(=O)C(C(=O)OCC)C1CCCCC1"
targetorsystem = "MDA-MB-435 melanoma"
experimentalvalue = "101% (inactive)"

[[record]]
compound = "C[C@H](C(=O)N[C@@H](Cc1ccc(-c2ccccc2)cc1)C(=O)NC1CC(C)(C)NC(C)(C)C1)c1ccc(-c2ccccc2)c(F)c1"
targetorsystem = "MDA-MB-435 melanoma"
experimentalvalue = "-90.1% (active)"

[[record]]
compound = "CSc1nc(-c2ccc(O)cc2O)c2c(=O)[nH]c(Nc3ccc(S(=O)(=O)Nc4nc(C)cc(C)n4)cc3)nc2n1"
targetorsystem = "MDA-MB-435 melanoma"
experimentalvalue = "196% (inactive)"

[[record]]
compound = "O=C(N/N=C/c1cccc([N+](=O)[O-])c1)c1ccc(Br)o1"
targetorsystem = "MDA-MB-435 melanoma"
experimentalvalue = "106% (inactive)"


Exam item: What value of growth has been recorded for this entry: CCCCCc1c(C)[nH]c(/C=C2\N=C(c3ccc[nH]3)C=C2Oc2ccccc2)c1C
Marked response: -34.4% [100 µM] (active)

Exam item: What value of growth has been recorded for this entry: COc1ccc(CNC(=O)c2c(C)n([O-])c3ccccc3[n+]2=O)cc1
Marked response: 124% (inactive)

====

- Test system: OVCAR-4 ovarian
- procedureDetails: NCI-60 one-dose screen, 48 h (100 = growth as untreated, 0 = no growth, -100 = all killed)
- experimentalParameters: 10 µM unless noted
Compounds without any hit were thinned out: in the full panel of roughly 83,000, 20% have a hit. Calls of active or inactive are those of the source. The calls were made as follows: active = growth percent below 10; inactive = the rest.
quantityName: growth

Exam item: Under OVCAR-4 ovarian: growth value of CC(C)=CCNc1ncnc2c1ncn2C1OC(COP(=O)(O)O)C(O)C1O (stereo not given) ?
Marked response: 85.4% (inactive)

====

- System: BT-549 breast
- procedureDetails: NCI-60 one-dose screen, 48 h
- experimentalParameters: 10 µM unless noted
About 83,000 compounds went through this panel and 20% of them were active in at least one assay; those are over-represented in the sample as a whole. Activity calls are given as the source filed them. Rule for the calls: active = growth percent below 10; inactive = the rest.
The categories you may choose from are t for active, f for inactive

Exam item: Returns: the outcome recorded for Cc1sc2nc(N3CCCCC3)[nH]c(=O)c2c1C in this assay.
Marked response: f

Exam item: Returns: the outcome recorded for C[C@]12CC[C@H](O)CC1=CC[C@@H]1[C@@H]2CC[C@]2(C)C(c3cccnc3)=CC[C@@H]12 in this assay.
Marked response: f

Exam item: Returns: the outcome recorded for COc1ccc2c(c1)[n+](=O)c(C(=O)/C=C/c1cc(OC)c(OC)c(OC)c1)c(C)n2[O-] in this assay.
Marked response: f

Exam item: Returns: the outcome recorded for CCOC(=O)C(Br)=P(c1ccccc1)(c1ccccc1)c1ccccc1 in this assay.
Marked response: f

Exam item: Returns: the outcome recorded for NC(=O)NC1(C(=O)O)CCCC1 in this assay.
Marked response: f

Exam item: Returns: the outcome recorded for CN(C)CCCNc1nn2c(=O)c3ccccc3nc2c2ccccc12 in this assay.
Marked response: f

====

- System: NCI-H322M lung
- procedureDetails: NCI-60 one-dose screen, 48 h (100 = growth as untreated, 0 = no growth, -100 = all killed)
- experimentalParameters: 10 µM unless noted
The panel holds about 83,000 compounds, 20% with a hit somewhere; the sample as a whole holds those more often.
Answer 0.0 if growth is under 80%, and 1.0 if it is 80% or more.

Record excerpt, results attached:
[[record]]
molecule = "Cc1ccc(NC(=O)c2sc3nc4c(cc3c2N)C(=O)CCC4)cc1"
label = 0.0

[[record]]
molecule = "O=CN1N=C(c2ccc(Cl)cc2)CC1c1cccc(Nc2ccnc3cc(Cl)ccc23)c1 (stereo not drawn)"
label = 0.0

[[record]]
molecule = "CCOC(=O)C(C(=O)OCC)C1CCCCC1"
label = 1.0

[[record]]
molecule = "CCCCCCCCCCOC(C)=O"
label = 1.0

[[record]]
molecule = "COc1cc(/C=C/C(=O)c2c(C)n([O-])c3ccccc3[n+]2=O)cc(OC)c1OC"
label = 0.0


Exam item: // inclusive: growth at least 80%? input: Cn1c(=O)c2[nH]c(=S)n(Cc3ccccc3)c2n(C)c1=O
Marked response: 1.0

====

- System: OVCAR-5 ovarian
- procedureDetails: NCI-60 one-dose screen, 48 h
- experimentalParameters: 10 µM unless noted
The panel holds about 83,000 compounds, 20% with a hit somewhere; the sample as a whole holds those more often. Activity calls are given as the source filed them. Rule for the calls: active = growth percent below 10; inactive = the rest.
The categories you may choose from are active, inactive

Record excerpt, results attached:
[[record]]
compound = "Nc1nc(Nc2ccccc2SSc2ccccc2Nc2nc(N)nc(C(Cl)(Cl)Cl)n2)nc(C(Cl)(Cl)Cl)n1"
label = "inactive"

[[record]]
compound = "CNNc1ncnc2c1cnn2-c1ccc(S(N)(=O)=O)cc1"
label = "inactive"

[[record]]
compound = "COc1cc(/C=C/c2cc(/C=C/c3ccc(O)c(OC)c3)n(C(=O)Cc3ccccc3)n2)ccc1O"
label = "active"

[[record]]
compound = "CC[C@@H](c1ccc(O)c(O)c1)[C@@H](CC)c1ccc(O)c(O)c1"
label = "inactive"


Exam item: Returns: the outcome recorded for COc1ccc(CNC(=O)c2c(C)n([O-])c3cc(F)c(F)cc3[n+]2=O)cc1 in this assay.
Marked response: inactive

Exam item: Returns: the outcome recorded for O=C(NCCCl)NCCN1c2nc3ccccc3cc2Sc2cc3ccccc3nc21 in this assay.
Marked response: inactive

Exam item: Returns: the outcome recorded for O=C1/C=C/[C@@H](O)[C@@H]2C[C@@H](O)C[C@H]2/C=C/CCC[C@H](CO)O1 in this assay.
Marked response: inactive

Exam item: Returns: the outcome recorded for CCN(CC)CCCCCCCNc1c2ccc(Cl)cc2nc2ccc(OC)cc12 in this assay.
Marked response: active

Exam item: Returns: the outcome recorded for CCSc1nc(Nc2ccc(S(=O)(=O)Nc3ccon3)cc2)c(C#N)c(-c2cccc(Br)c2)n1 in this assay.
Marked response: inactive

Exam item: Returns: the outcome recorded for CC(C)CNc1nc(N=[N+]=[N-])nc(NCC(C)C)n1 in this assay.
Marked response: inactive

Exam item: Returns: the outcome recorded for CCCCCCCCCCCCCCCCNC(=O)Nc1ccc2ccccc2c1 in this assay.
Marked response: inactive

Exam item: Returns: the outcome recorded for c1ccc(-c2nc(Nc3nccnn3)c3ccccc3n2)cc1 in this assay.
Marked response: inactive

Exam item: Returns: the outcome recorded for NS(=O)(=O)c1ccc(-n2ncc3c(N/N=C/c4ccccc4)ncnc32)cc1 in this assay.
Marked response: inactive

Exam item: Returns: the outcome recorded for COC(=O)[C@H](Cc1cn(C)cn1)NC(=O)[C@H](Cc1ccccc1)NC(=O)Nc1cc(C(F)(F)F)cc(C(F)(F)F)c1 in this assay.
Marked response: active

Exam item: Returns: the outcome recorded for O=C(Oc1cccc2ccccc12)c1ccccc1C(=O)c1ccccc1 in this assay.
Marked response: inactive

Exam item: Returns: the outcome recorded for CN1C(=O)C(C2=NN(C=O)C(c3ccc(F)cc3)C2)C(=O)N(C)C1=O (configuration not stated) in this assay.
Marked response: inactive

Exam item: Returns: the outcome recorded for COc1cc(C(=O)c2cc3c(cc2C)OCO3)cc(OC)c1OC in this assay.
Marked response: inactive

Exam item: Returns: the outcome recorded for Cc1[nH]ccc2cc3nc4ccccc4c3cc12 in this assay.
Marked response: inactive

Exam item: Returns: the outcome recorded for O=C(C(=O)c1cc(Br)ccc1O)c1cc(Br)ccc1O in this assay.
Marked response: inactive

Exam item: Returns: the outcome recorded for COc1cnc2c(c1)C(=O)c1c-2n(CCCN2CCOCC2)c(=O)c2cc(F)ccc12 in this assay.
Marked response: active

Exam item: Returns: the outcome recorded for Cc1ccc2nc(-c3ccc(N(C)C)c(Br)c3)cn2c1 in this assay.
Marked response: inactive

Exam item: Returns: the outcome recorded for CNCCCn1c2c(c3ccc(F)cc3c1=O)C(=O)c1cc(OC)cnc1-2 in this assay.
Marked response: active

====

- Tested on: OVCAR-3 ovarian
- procedureDetails: NCI-60 one-dose screen, 48 h
- experimentalParameters: 10 µM unless noted
This is part of a sample that, as a whole, favours compounds with a hit. Of some 83,000 tested, about 20% had one in any assay. Active and inactive are the calls of the source. How the source made its calls: active means growth percent below 10; inactive means the rest.
The categories you may choose from are 1 (yes) for active, 0 (no) for inactive

Record excerpt, results attached:
[[record]]
compound = "OCc1n(Cc2ccc3ccccc3c2)cc[n+]1Cc1ccc2ccccc2c1"
targetorsystem = "OVCAR-3 ovarian"
label = "0 (no)"

[[record]]
compound = "Nc1nc2c(c(=O)[nH]1)C1(C(=O)Nc3ccccc31)c1c(nc(N)[nH]c1=O)N2"
targetorsystem = "OVCAR-3 ovarian"
label = "0 (no)"


Exam item: Returns: the outcome recorded for Cc1[nH]cnc1/C=C1\SC(N2CCCCC2)=NC1=O in this assay.
Marked response: 0 (no)

Exam item: Returns: the outcome recorded for C=C1CCC2C3(C)COC(c4ccccc4)OC3CCC2(C)C1C/C=C1/C(=O)OCC1OC(C)=O (centres undefined) in this assay.
Marked response: 0 (no)

Exam item: Returns: the outcome recorded for CN1CCN(c2nc3scc(-c4ccccc4)c3c(=O)[nH]2)CC1 in this assay.
Marked response: 0 (no)

Exam item: Returns: the outcome recorded for COc1cnc2c(c1)C(=O)c1c-2n(CCCN2CCNCC2)c(=O)c2cc(F)ccc12 in this assay.
Marked response: 1 (yes)

Exam item: Returns: the outcome recorded for CCOC(=O)/C=C1/SC(=Nc2ccc(C#N)cc2)N(Cc2ccco2)C1=O in this assay.
Marked response: 0 (no)

Exam item: Returns: the outcome recorded for COc1ccc([N+](=O)[O-])c(S(=O)(=O)c2ccc(Cl)cc2)n1 in this assay.
Marked response: 0 (no)

Exam item: Returns: the outcome recorded for Cn1c(=O)c2[nH]c(=S)n(Cc3ccccc3)c2n(C)c1=O in this assay.
Marked response: 0 (no)
